Measured IC50 (Coagulation factor XI (Homo sapiens, UniProt P03951))

Enquiry: # lookup: IC50 of "N=C(N)c1ccc(CNC(=O)[C@@H]2CCN2C(=O)[C@H](NCC(=O)O)C2CCCCC2)cc1"
Return: 20 µM

Enquiry: Repeat with "N=C(N)c1ccc(CNC(=O)C2(NC(=O)[C@H](NCC(=O)O)C3CCCCC3)Cc3ccccc3C2)cc1"
Return: > 44 µM

---

- targetOrTestSystem: UniProt:P00742
- Sequence (P00742 41-179 limits assumed): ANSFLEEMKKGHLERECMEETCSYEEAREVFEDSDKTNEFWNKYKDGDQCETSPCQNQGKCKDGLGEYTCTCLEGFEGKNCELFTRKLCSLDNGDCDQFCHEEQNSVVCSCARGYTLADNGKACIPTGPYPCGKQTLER
- Sequence (P00742 235-488 limits assumed): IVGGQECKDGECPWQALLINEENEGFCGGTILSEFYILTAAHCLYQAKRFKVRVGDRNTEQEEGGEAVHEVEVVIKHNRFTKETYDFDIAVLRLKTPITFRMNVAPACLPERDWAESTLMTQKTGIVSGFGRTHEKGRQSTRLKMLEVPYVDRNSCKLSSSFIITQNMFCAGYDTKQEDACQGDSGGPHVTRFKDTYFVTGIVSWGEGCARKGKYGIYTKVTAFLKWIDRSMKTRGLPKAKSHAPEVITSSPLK
- testProtocol: Inhibition of human coagulation factor 10a using S-2765 as substrate preincubated for 300 seconds followed by substrate addition measured after 40 mins by spectrophotometric analysis
readoutLabel: IC50 (µM)
API: value field is a number in µM; no unit string.

Enquiry: # lookup: IC50 of "N=C(N)c1ccc(CNC(=O)C2(NC(=O)[C@H](NCC(=O)O)C3CCCCC3)Cc3ccccc3C2)cc1"
Return: 48

---

- Species: Homo sapiens
- testProtocol: Selectivity ratio of IC50 for human thrombin to IC50 for human APC
Task for the reader: assign each of the following compounds its reported Ratio IC50.
Returns: the value as a bare number; no unit string appended.

Enquiry: # lookup: Ratio IC50 of N=C(N)c1ccc(CNC(=O)C(Cc2ccc(CN)cc2)NC(=O)[C@@H](CC2CCCCC2)NCC(=O)O)cc1 (mixture of isomers)
Return: 3.3

Enquiry: Repeat with "N=C(N)c1ccc(CNC(=O)[C@@H](NC(=O)[C@@H](CC2CCCCC2)NCC(=O)O)C2CCNCC2)cc1"
Return: 8.4

Enquiry: Repeat with N=C(N)c1ccc(CNC(=O)C(CCC2CCNCC2)NC(=O)[C@@H](CC2CCCCC2)NCC(=O)O)cc1 (mixture of isomers)
Return: 23

Enquiry: Repeat with "N=C(N)c1ccc(CNC(=O)[C@H](Cc2ccc3ccccc3c2)NC(=O)[C@@H](CC2CCCCC2)NCC(=O)O)cc1"
Return: 5.3

Enquiry: Repeat with N=C(N)c1ccc(CNC(=O)C(CCC2CCNCC2)NC(=O)[C@@H](NCC(=O)O)C2CCCCC2)cc1 (mixture of isomers)
Return: 1

Enquiry: Repeat with "N=C(N)NCCC[C@H](NC(=O)[C@@H](CC1CCCCC1)NCC(=O)O)C(=O)NCc1ccc(C(=N)N)cc1"
Return: 2.8

Enquiry: Repeat with N=C(N)c1ccc(CNC(=O)[C@H](CC2CCCN2)NC(=O)[C@@H](CC2CCCCC2)NCC(=O)O)cc1 (mixture of isomers)
Return: 1.3

Enquiry: Repeat with N#Cc1ccc(CC(NC(=O)[C@@H](CC2CCCCC2)NCC(=O)O)C(=O)NCc2ccc(C(=N)N)cc2)cc1 (mixture of isomers)
Return: 5.4

Enquiry: Repeat with "N=C(N)c1ccc(CNC(=O)[C@H](Cc2ccccc2)NC(=O)[C@@H](CC2CCCCC2)NCC(=O)O)cc1"
Return: 9.1

Enquiry: Repeat with "N=C(N)c1ccc(CNC(=O)[C@H](Cc2ccc(O)cc2)NC(=O)[C@@H](CC2CCCCC2)NCC(=O)O)cc1"
Return: 15

Enquiry: Repeat with "N=C(N)NCCC[C@H](NC(=O)[C@H](N)C1CCCCC1)C(=O)NCc1ccc(C(=N)N)cc1"
Return: 1.2

Enquiry: Repeat with N=C(N)c1ccc(CNC(=O)[C@@H](CC2CCCN2)NC(=O)[C@@H](CC2CCCCC2)NCC(=O)O)cc1 (mixture of isomers)
Return: 1

Enquiry: Repeat with N=C(N)c1ccc(CNC(=O)C(CCC2CCNCC2)NC(=O)[C@H](N)CC2CCCCC2)cc1 (mixture of isomers)
Return: 8.9

Enquiry: Repeat with "N=C(N)NCCC[C@H](NC(=O)[C@@H](CC1CCCCC1)NCCC(=O)O)C(=O)NCc1ccc(C(=N)N)cc1"
Return: 1.8

Enquiry: Repeat with "N=C(N)c1ccc(CNC(=O)C2(NC(=O)[C@H](NCC(=O)O)C3CCCCC3)Cc3ccccc3C2)cc1"
Return: 21
